Tested on: Vero E6 infected with SARS-CoV-2
Assay: inhibition of SARS-CoV-2 cytopathic effect; higher = more antiviral protection, active = above 15
Details: 10000 nM; 48 h
MEASURE: inhibition of SARS-CoV-2 cytopathic effect (%)

| COMPOUND | UNIT_ANNOTATION | NUMERIC_RESULT |
| --- | --- | --- |
| C=C1/C(=C\C=C2/CCC[C@]3(C)[C@@H]([C@H](C)/C=C/C=C/C(O)(CC)CC)CC[C@@H]23)C[C@@H](O)C[C@@H]1O | % | 1.01 |
| O=c1[nH]c([C@@H]2CCCN2)nc2c1oc1ccc(Cl)cc12 | % | -2.54 |
| COc1cc2c(c(OC)c1OC)-c1c(cc3c(c1OC)OCO3)C[C@H](C)[C@@](C)(O)C2 | % | 1.68 |
| CC(C)C[C@@H](NC(=O)[C@H](C)NC(=O)CNC(=O)[C@@H](NC=O)C(C)C)C(=O)N[C@@H](C)C(=O)N[C@@H](C(=O)N[C@H](C(=O)N[C@@H](C(=O)N[C@@H](Cc1c[nH]c2ccccc12)C(=O)N[C@H](CC(C)C)C(=O)N[C@@H](Cc1c[nH]c2ccccc12)C(=O)N[C@H](CC(C)C)C(=O)N[C@@H](Cc1c[nH]c2ccccc12)C(=O)N[C@H](CC(C)C)C(=O)N[C@@H](Cc1c[nH]c2ccccc12)C(=O)NCCO)C(C)C)C(C)C)C(C)C | % | 2.22 |
| c1ccc2[nH]c(-c3cscn3)nc2c1 | % | -0.19 |
| Nc1nc2c(ccc3ccccc32)s1 | % | -1.09 |
| CC1(C)CCC(C)(C)c2cc(NC(=O)c3ccc(C(=O)O)cc3)ccc21 | % | 0.68 |
| O=C1NC(=O)C(c2ccccc2)(c2ccccc2)N1 | % | 0.37 |
| CC(NCCc1ccc(O)cc1)C(O)c1ccc(O)cc1 (configuration not stated) | % | -1.02 |
| O=C(O)Cc1ccc(CCNS(=O)(=O)c2ccc(Cl)cc2)cc1 | % | 1.78 |
| CC(=O)c1cnc2ccc(-c3cc(Cl)c(O)c(Cl)c3)nc2c1N[C@H]1CC[C@H](CN(C)C)CC1 | % | -5.46 |
| CCC(C)(CN(C)C)OC(=O)c1ccccc1 (configuration not stated) | % | -0.23 |
| O=C(CNC(=O)c1ccc(Cl)cc1)NO | % | 0.4 |
| CC(=O)Nc1ncc([N+](=O)[O-])s1 [nithiamide] | % | -1.53 |
| COc1ccccc1N1CCN(CCN2C(=O)CC3(CCCC3)CC2=O)CC1 | % | 0.47 |
| CCc1[nH]c(=O)[nH]c1C(=O)c1ccncc1 | % | -1.11 |
| CCCCCCCCCCCCCCC[C@@H](O)[C@@H](N)CO | % | -4.84 |

###

System: Vero E6 infected with SARS-CoV-2
Assay: inhibition of SARS-CoV-2 cytopathic effect; higher = more antiviral protection, active = above 15
Conditions: 8.33 nM; 48 h
Measured inhibition of SARS-CoV-2 cytopathic effect values are reported for all entries that follow.
MEASURE: inhibition of SARS-CoV-2 cytopathic effect (%)

| COMPOUND | UNIT_ANNOTATION | NUMERIC_RESULT |
| --- | --- | --- |
| C[C@H](CCC(=O)O)[C@H]1CC[C@H]2[C@@H]3[C@@H](O)C[C@@H]4C[C@H](O)CC[C@]4(C)[C@H]3CC[C@]12C | % | 1.77 |
| COc1cc(C(=O)NCc2ccc(OCCN(C)C)cc2)cc(OC)c1OC [trimethobenzamide] | % | -1.41 |
| O=C(O)c1cc(=O)[nH]c(=O)[nH]1 | % | 1.49 |
| O=C(O)c1nc(=O)[nH]c(=O)[nH]1 | % | -2.79 |
| COc1ccc2[nH]c(SCc3ncc(C)c(OC)c3C)nc2c1 [omeprazole-sulfide] | % | -15.1 |
| O=C(Nc1nc(-c2cc(Cl)cs2)c(N2CCN(C3CCCCC3)CC2)s1)c1cnc(N2CCC(C(=O)O)CC2)c(Cl)c1 | % | 0.14 |
| CNC(=O)c1ccc(Nc2ncc(C(F)(F)F)c(NCc3nccnc3N(C)S(C)(=O)=O)n2)cc1 | % | -4.25 |
| [N-]=[N+]=CC(=O)CC[C@H](N)C(=O)O | % | 0.78 |
| CC(C)N[C@H]1CCn2c(=O)[nH]c3cccc(c32)[C@@H]1O | % | -0.6 |
| CNC(=O)c1ccc2c(c1)CCO[C@H]2CCN1CCN(c2ccc(C(N)=O)cc2)CC1 | % | -0.55 |
| C=C(NC(=O)C(=C)NC(=O)c1csc(C2=N[C@@H]3c4csc(n4)[C@H]4NC(=O)c5csc(n5)[C@H]([C@](C)(O)[C@@H](C)O)NC(=O)[C@H]5CSC(=N5)/C(=C/C)NC(=O)[C@H]([C@@H](C)O)NC(=O)c5csc(n5)[C@]3(CC2)NC(=O)[C@H](C)NC(=O)C(=C)NC(=O)[C@H](C)NC(=O)[C@H]([C@@H](C)CC)N[C@@H]2C=Cc3c([C@H](C)O)cc(nc3[C@H]2O)C(=O)O[C@@H]4C)n1)C(N)=O | % | -1.12 |
| Fc1ccc(Cn2c(NC3CCNCC3)nc3ccccc32)cc1 | % | -9.9 |
| CCc1[nH]c(=O)[nH]c1C(=O)c1ccncc1 | % | 5 |
| CCCCC/C=C\C/C=C\C/C=C\CCCCC(=O)O | % | -2.39 |
| O=C1O[C@H]([C@@H](O)CO)C([O-])=C1O.[Na+] [sodium-ascorbate] | % | 0.79 |
| Cc1ccc(N(CC2=NCCN2)c2cccc(O)c2)cc1 | % | 0.07 |
| Cc1sc2c(c1C)C(c1ccc(Cl)cc1)=N[C@@H](CC(=O)Nc1ccc(O)cc1)c1nnc(C)n1-2 | % | 0.43 |
| O=C(CCN1CCN(C(=O)OCc2cc(Cl)cc(Cl)c2)CC1)c1ccc2[nH]c(=O)oc2c1 | % | 5.29 |
| CO/N=C(\C(=O)N[C@@H]1C(=O)N2C(C(=O)OCOC(=O)C(C)(C)C)=C(/C=C\c3scnc3C)CS[C@H]12)c1csc(N)n1 | % | -0.15 |
| C[C@]12CCC(=O)C=C1CC[C@@H]1[C@@H]2[C@@H](O)C[C@@]2(C)[C@H]1CC[C@]2(O)C(=O)CO [hydrocortisone] | % | -3.12 |
| NC(=O)[C@@H](CC1CC1)[C@@H](CCC(F)(F)F)C(=O)N[C@H]1N=C(c2ccccc2)c2cccc(F)c2NC1=O | % | -1.04 |
| CCCC(=O)N1CCCN(c2nc(N)c3cc(OC)c(OC)cc3n2)CC1 | % | -1.38 |
| CC1(C)S[C@@H]2[C@H](NC(=O)[C@H](N)c3ccccc3)C(=O)N2[C@H]1C(=O)O | % | 1.76 |
| O=C(O)[C@H](O)c1ccccc1 | % | 3.41 |
| CC(C)c1cc(CNc2nc(Nc3cc(C4CC4)[nH]n3)cc(N3CCN(C)CC3)n2)on1 | % | 1.15 |
| C[N+](C)(C)CC(=O)O | % | -0.6 |
| C[N+](C)(CCOc1ccccc1)Cc1ccccc1 [bephenium-hydroxynaphthoate] | % | 0.87 |
| CC(C)(C)c1cc(C=C(C#N)C#N)cc(C(C)(C)C)c1O | % | 1.44 |
| Cc1[nH]c(/C=C2\C(=O)Nc3ccccc32)c(C)c1CCC(=O)O [orantinib] | % | 2.48 |
| CC(=O)[C@H]1CC[C@H]2[C@@H]3CC=C4C[C@@H](OC(=O)CCC(=O)O)CC[C@]4(C)[C@H]3CC[C@]12C [pregnenolone-succinate] | % | 3.1 |
| CC(C)(C)NC(=O)[C@@H]1C[C@@H]2CCCC[C@@H]2CN1C[C@@H](O)[C@H](Cc1ccccc1)NC(=O)[C@H](CC(N)=O)NC(=O)c1ccc2ccccc2n1 | % | -7.46 |
